Give measured switch fluorescence ratio for each item. Keep answers brief.
Tested on: ATP;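 also: ATP exposure 15 min at 22 °C before imaging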
Procedure Text: switch fluorescence ratio, 500 uM ATP over buffer (Cy3 cluster intensity, sum of 5 cycles each) (fold (ratio)); higher = stronger signal-on switching upon ATP binding; sequences stand for … in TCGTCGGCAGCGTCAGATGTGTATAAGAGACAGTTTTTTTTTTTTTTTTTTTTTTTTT…TC
Setup Conditions: aptamer strand: ATP DNA aptamer (quencher-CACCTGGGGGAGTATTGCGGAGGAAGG + anchor), 100 nM annealed; ATP concentration: 500 uM
Please reply with the value in numeric form only.

[Q] Need switch fluorescence ratio of AACGCATGTG , thanks.
[A] 1

[Q] Need switch fluorescence ratio of TTGGGCTACG , thanks.
[A] 1

[Q] Need switch fluorescence ratio of AACGTTATAA , thanks.
[A] 1.05

[Q] Need switch fluorescence ratio of TTAATTGTTT , thanks.
[A] 0.989

[Q] Need switch fluorescence ratio of TTATGCAGGG , thanks.
[A] 1.01

[Q] Need switch fluorescence ratio of TGTGCGGGTT , thanks.
[A] 1.02

[Q] Need switch fluorescence ratio of CTGGTAGACT , thanks.
[A] 0.992

[Q] Need switch fluorescence ratio of TTAAAAATGA , thanks.
[A] 1.02

[Q] Need switch fluorescence ratio of CTCTGGCGTT , thanks.
[A] 1.51

[Q] Need switch fluorescence ratio of TTTTTAGCAT , thanks.
[A] 1.04

[Q] Need switch fluorescence ratio of AGGGGCGTAG , thanks.
[A] 1

[Q] Need switch fluorescence ratio of TAAGTAATTC , thanks.
[A] 1.08

[Q] Need switch fluorescence ratio of GTGGGGGGGT , thanks.
[A] 0.992

[Q] Need switch fluorescence ratio of ATATCAATC , thanks.
[A] 1.02

[Q] Need switch fluorescence ratio of CACGCTTCCG , thanks.
[A] 1.07

[Q] Need switch fluorescence ratio of TAGTTTTTAG , thanks.
[A] 0.981

[Q] Need switch fluorescence ratio of GTGGGATTGG , thanks.
[A] 1.01

[Q] Need switch fluorescence ratio of CGGTCATATT , thanks.
[A] 0.989

[Q] Need switch fluorescence ratio of TCGGGTTGGG , thanks.
[A] 0.975

[Q] Need switch fluorescence ratio of TTAATTACGG , thanks.
[A] 1.01

[Q] Need switch fluorescence ratio of TGAGGGGTGA , thanks.
[A] 1.01

----------
Tested on: ATP;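 also: ATP exposure 15 min at 22 °C before imaging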
Procedure Text: switch fluorescence ratio, 500 uM ATP over buffer (Cy3 cluster intensity, sum of 5 cycles each) (fold (ratio)); higher = stronger signal-on switching upon ATP binding; sequences stand for … in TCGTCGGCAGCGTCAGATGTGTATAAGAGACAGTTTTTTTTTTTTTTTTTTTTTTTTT…TC
Setup Conditions: aptamer strand: ATP DNA aptamer (quencher-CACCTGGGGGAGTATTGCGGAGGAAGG + anchor), 100 nM annealed; ATP concentration: 500 uM
Give measured switch fluorescence ratio for each item. Keep answers brief.
Please reply with the value in numeric form only.

[Q] Need switch fluorescence ratio of CGTATTTTTT , thanks.
[A] 1.01

[Q] Need switch fluorescence ratio of TTTTGAGGTC , thanks.
[A] 0.986

[Q] Need switch fluorescence ratio of AGGGGGTCCG , thanks.
[A] 1.03

[Q] Need switch fluorescence ratio of TGCACCTTGG , thanks.
[A] 1.01

[Q] Need switch fluorescence ratio of TCTTTTGAGG , thanks.
[A] 1.02

[Q] Need switch fluorescence ratio of GGTGTGTGTT , thanks.
[A] 0.995

[Q] Need switch fluorescence ratio of GGTGGGTGGT , thanks.
[A] 0.99

[Q] Need switch fluorescence ratio of AGTCCGTCGT , thanks.
[A] 1.03

[Q] Need switch fluorescence ratio of CATAACGGGG , thanks.
[A] 0.957

[Q] Need switch fluorescence ratio of CAATAGATGT , thanks.
[A] 1.04

[Q] Need switch fluorescence ratio of AGGGAGGCGG , thanks.
[A] 0.974

[Q] Need switch fluorescence ratio of AGACGGGGGC , thanks.
[A] 0.978

[Q] Need switch fluorescence ratio of CGGGGCGCGC , thanks.
[A] 1.02

[Q] Need switch fluorescence ratio of TTAAAAGGAA , thanks.
[A] 1

[Q] Need switch fluorescence ratio of AATTTAGTTT , thanks.
[A] 0.978

[Q] Need switch fluorescence ratio of AATTACGTTT , thanks.
[A] 1.06

[Q] Need switch fluorescence ratio of AAGTCATTTG , thanks.
[A] 1.02

[Q] Need switch fluorescence ratio of GGGGTTAGGT , thanks.
[A] 1.01

[Q] Need switch fluorescence ratio of CATAGAGGGT , thanks.
[A] 0.951

[Q] Need switch fluorescence ratio of CGGAAAATTA , thanks.
[A] 1.02

[Q] Need switch fluorescence ratio of TCCGACTCG , thanks.
[A] 1.09

[Q] Need switch fluorescence ratio of ATGACTTGCG , thanks.
[A] 1

[Q] Need switch fluorescence ratio of TTGGGGTGCT , thanks.
[A] 0.992

[Q] Need switch fluorescence ratio of GTGAAACGGT , thanks.
[A] 1.03

[Q] Need switch fluorescence ratio of AAGCAGGGGA , thanks.
[A] 1.05

[Q] Need switch fluorescence ratio of CTTAGGGTGT , thanks.
[A] 0.964

[Q] Need switch fluorescence ratio of CGTGTATGTG , thanks.
[A] 0.969

[Q] Need switch fluorescence ratio of TTTCAGAAAT , thanks.
[A] 1.91

[Q] Need switch fluorescence ratio of TCTAAGGATT , thanks.
[A] 1.02

[Q] Need switch fluorescence ratio of TTATTTTTGG , thanks.
[A] 0.989

[Q] Need switch fluorescence ratio of GATAGTACGG , thanks.
[A] 1.01

[Q] Need switch fluorescence ratio of AGTACCAATG , thanks.
[A] 1.03

[Q] Need switch fluorescence ratio of GAGTGTTGGT , thanks.
[A] 1

[Q] Need switch fluorescence ratio of CGATGTCAGC , thanks.
[A] 1.07

[Q] Need switch fluorescence ratio of TCAGAATCGT , thanks.
[A] 0.988

[Q] Need switch fluorescence ratio of ATCTGGCTCG , thanks.
[A] 0.988

[Q] Need switch fluorescence ratio of CGGTATGGCT , thanks.
[A] 0.969

[Q] Need switch fluorescence ratio of AACGACTTGT , thanks.
[A] 1.01

[Q] Need switch fluorescence ratio of ATCCGGGACC , thanks.
[A] 1.06

[Q] Need switch fluorescence ratio of GGTTTAGTTT , thanks.
[A] 0.99

[Q] Need switch fluorescence ratio of AAGAGATTTG , thanks.
[A] 0.981

[Q] Need switch fluorescence ratio of TCAGGGCGTG , thanks.
[A] 1

[Q] Need switch fluorescence ratio of CGTATTGAGA , thanks.
[A] 0.968

----------
Tested on: ATP;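 also: ATP exposure 15 min at 22 °C before imaging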
Procedure Text: switch fluorescence ratio, 500 uM ATP over buffer (Cy3 cluster intensity, sum of 5 cycles each) (fold (ratio)); higher = stronger signal-on switching upon ATP binding; sequences stand for … in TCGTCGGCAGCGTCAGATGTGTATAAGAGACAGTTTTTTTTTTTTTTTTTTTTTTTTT…TC
Setup Conditions: aptamer strand: ATP DNA aptamer (quencher-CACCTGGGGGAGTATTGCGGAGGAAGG + anchor), 100 nM annealed; ATP concentration: 500 uM
Give measured switch fluorescence ratio for each item. Keep answers brief.
Please reply with the value in numeric form only.

[Q] Need switch fluorescence ratio of ATGAGACCCT , thanks.
[A] 1.07

[Q] Need switch fluorescence ratio of CAGATTGAAT , thanks.
[A] 0.982

[Q] Need switch fluorescence ratio of GAACATGCAG , thanks.
[A] 1.01

[Q] Need switch fluorescence ratio of TTGAGGTTTG , thanks.
[A] 1.03

[Q] Need switch fluorescence ratio of CAGTAAAAAG , thanks.
[A] 1.03

[Q] Need switch fluorescence ratio of AATGGCACAG , thanks.
[A] 1.01

[Q] Need switch fluorescence ratio of GCAGTGTCCA , thanks.
[A] 1.01

[Q] Need switch fluorescence ratio of GAGAGTGGTT , thanks.
[A] 0.998

[Q] Need switch fluorescence ratio of AAAGTAGTTA , thanks.
[A] 0.991

[Q] Need switch fluorescence ratio of GGCCACGCTC , thanks.
[A] 1.04

[Q] Need switch fluorescence ratio of TAGGGCTGTA , thanks.
[A] 0.993

[Q] Need switch fluorescence ratio of CGAGGGGTTA , thanks.
[A] 1.01

[Q] Need switch fluorescence ratio of TAAAATAGAG , thanks.
[A] 1

[Q] Need switch fluorescence ratio of CGCTCGCCTG , thanks.
[A] 1.03

[Q] Need switch fluorescence ratio of CGTTTAGGTT , thanks.
[A] 1

[Q] Need switch fluorescence ratio of GACGACGTTG , thanks.
[A] 1.06

[Q] Need switch fluorescence ratio of TTTGGTGTTA , thanks.
[A] 1

[Q] Need switch fluorescence ratio of ATCATTTAGT , thanks.
[A] 0.982

[Q] Need switch fluorescence ratio of TGGTCCAGAA , thanks.
[A] 0.977

[Q] Need switch fluorescence ratio of GGGCTTTTTT , thanks.
[A] 0.98
